Target: GalNAc3S(b1-4)GlcNAc3S
Assay: glycan array binding signal (z-score within array); higher = stronger binding
Settings: glycan notation: IUPAC condensed, linker removed
Shown is part of a subset that was picked to be rich in the strongest signals.
The binders listed here are annotated with their glycan array binding signal (z-score).

{"binder": "EUL D1A second (Oryza sativa) (protein) GAATACTIGGVPVHTVRVFSAAGEDYCLTVRNGTACLAPKNPRDDYQHWIKDMRHSNKIRDEEGYPAFALVNKVTGEAIKHSTGQGHPVKLVPYNPEYQDESVLWTESKDVGKGFRCIRMVNNIYLNFDAFHGDKDHGGIHDGTEIVLWKWCEGDNQRWKILPWILEQKLISEEDLNSAVDHHHHHH", "glycan array binding signal (z-score)": -0.9}
{"binder": "CpGal16 (Clavelina picta) (protein) MAKMITNYVGKRIECIMVATDMMSTVFSLASATGDLPFYINFRQRENSIVMNTRVHGKWQYEKSQSSGGMNFYEPFRLVVEVRPSVFKVTVSTMGEEDGITFNLQYSQITIKPDEIVAMHLGYCNLRSELLVTDL", "glycan array binding signal (z-score)": 0.397}
